B1: library; numbered along this chain (parent)
chain: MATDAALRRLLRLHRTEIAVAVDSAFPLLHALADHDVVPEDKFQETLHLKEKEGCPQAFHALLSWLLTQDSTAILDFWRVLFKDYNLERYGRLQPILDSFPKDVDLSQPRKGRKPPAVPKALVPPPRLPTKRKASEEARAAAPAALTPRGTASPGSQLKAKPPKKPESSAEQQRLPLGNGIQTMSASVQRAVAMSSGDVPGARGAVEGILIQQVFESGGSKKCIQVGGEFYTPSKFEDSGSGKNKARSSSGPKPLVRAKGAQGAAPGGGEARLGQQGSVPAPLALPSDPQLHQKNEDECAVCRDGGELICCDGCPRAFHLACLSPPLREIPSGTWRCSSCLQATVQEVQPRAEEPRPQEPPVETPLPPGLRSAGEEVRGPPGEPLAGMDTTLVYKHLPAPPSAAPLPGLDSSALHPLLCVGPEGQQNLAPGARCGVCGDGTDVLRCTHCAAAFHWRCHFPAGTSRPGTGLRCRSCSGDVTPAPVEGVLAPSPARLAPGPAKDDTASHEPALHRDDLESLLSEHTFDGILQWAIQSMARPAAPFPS

Variants of: B1
Assay: AIRE transcriptional activation functional score (insulin promoter-GFP; nonsense median 0, synonymous median 1) (normalised score); higher = higher AIRE activity (more reporter activation)
Settings: with insulin promoter-GFP reporter in HEK293
Exercise: state measured AIRE transcriptional activation functional score for each of the variants provided.
Answer using only a numeral; do not append any unit.

I'd like to know its AIRE transcriptional activation functional score. The variant in question is P166H
1.95

I'd like to know its AIRE transcriptional activation functional score. The variant in question is E383T
1.49

I'd like to know its AIRE transcriptional activation functional score. The variant in question is S185P
0.302

I'd like to know its AIRE transcriptional activation functional score. The variant in question is S411G
0.952

I'd like to know its AIRE transcriptional activation functional score. The variant in question is A432R
0.993

I'd like to know its AIRE transcriptional activation functional score. The variant in question is H458D
1.4

I'd like to know its AIRE transcriptional activation functional score. The variant in question is A134Q
1.1

I'd like to know its AIRE transcriptional activation functional score. The variant in question is D238P
1.5

I'd like to know its AIRE transcriptional activation functional score. The variant in question is T16G
0.0399

I'd like to know its AIRE transcriptional activation functional score. The variant in question is G305R
0.945

I'd like to know its AIRE transcriptional activation functional score. The variant in question is P360S
0.994

I'd like to know its AIRE transcriptional activation functional score. The variant in question is F525G
0.0436

I'd like to know its AIRE transcriptional activation functional score. The variant in question is D34M
-1.08

I'd like to know its AIRE transcriptional activation functional score. The variant in question is V37E
-0.336

I'd like to know its AIRE transcriptional activation functional score. The variant in question is R473L
1.29

I'd like to know its AIRE transcriptional activation functional score. The variant in question is P361T
1.12

I'd like to know its AIRE transcriptional activation functional score. The variant in question is N244T
1.14

I'd like to know its AIRE transcriptional activation functional score. The variant in question is F26I
-0.664

I'd like to know its AIRE transcriptional activation functional score. The variant in question is R303P
1.09

I'd like to know its AIRE transcriptional activation functional score. The variant in question is G251Y
1.42

I'd like to know its AIRE transcriptional activation functional score. The variant in question is N295M
-0.37

I'd like to know its AIRE transcriptional activation functional score. The variant in question is R538A
0.19
